# test.target: Recombinant human IL-1β (BioLegend 579404) (human, UniProt P01584 117-269)
# experiment.notes: cell-based or functional assay
Starred links: 1 amine or outer side, 2 acyl side, 3 side chain; linkers in the order of their positions; H or OH if unused. Non-standard residues stand in square brackets, D forms with d. Phe4pcCCA = (1R,4s)-4-(4-((S)-2-amino-2-carboxyethyl)phenyl)cyclohexane-1-carboxylic acid; Ala(2-carboxypyrimidin-5-yl) = N[C@@H](Cc1cnc(C(=O)O)nc1)C(=O)O; Trp(4-Cl)(βS-Me) = C[C@@H](c1c[nH]c2cccc(Cl)c12)[C@H](N)C(=O)O; dPro(4R-(4-pyridylmethyl)) = O=C(O)[C@H]1C[C@@H](Cc2ccncc2)CN1; Ala(piperidin-4-yl) = O=C([C@H](CC1CCN([*:3])CC1)N[*:1])[*:2]; Trp(βS-Me,4-F) = C[C@@H](c1c[nH]c2cccc(F)c12)[C@H](N)C(=O)O; Bip(4'-COOH) = N[C@@H](Cc1ccc(-c2ccc(C(=O)O)cc2)cc1)C(=O)O; Ala(1-bicyclo(1.1.1)pentyl) = N[C@@H](CC12CC(C1)C2)C(=O)O; dPro(4R-Bzl(4-F)) = O=C(O)[C@H]1C[C@@H](Cc2ccc(F)cc2)CN1; dPro(3S-(4-F-Bn)) = O=C(O)[C@@H]1NCC[C@@H]1Cc1ccc(F)cc1; Phe(2-Cl,4-COOH) = N[C@@H](Cc1ccc(C(=O)O)cc1Cl)C(=O)O; Trp(4-Cl) = N[C@@H](Cc1c[nH]c2cccc(Cl)c12)C(=O)O; Ala(pyrimidin-5-yl) = N[C@@H](Cc1cncnc1)C(=O)O; Phe(4-COOH) = N[C@@H](Cc1ccc(C(=O)O)cc1)C(=O)O; Bip = N[C@@H](Cc1ccc(-c2ccccc2)cc1)C(=O)O; Pro(cis-4-F) = O=C(O)[C@@H]1C[C@H](F)CN1; d(αMeD) = C[C@@](N)(CC(=O)O)C(=O)O; 4Pal = N[C@@H](Cc1ccncc1)C(=O)O; aThr = C[C@H](O)[C@H](N)C(=O)O; d(αMeS) = C[C@@](N)(CO)C(=O)O; dDab = NCC[C@@H](N)C(=O)O; Dab = NCC[C@H](N)C(=O)O; Aib = CC(C)(N)C(=O)O
endpoint.name: MRC5 IC50 (nM)

// worked examples, MRC5 IC50 included
| binder | MRC5 IC50 [nM] |
| --- | --- |
| cyclo([Bip(4'-COOH)][4Pal][Phe(4-COOH)]G[Pro(cis-4-F)][Trp(βS-Me,4-F)][Aib]SW[Aib][Ala(2-carboxypyrimidin-5-yl)]Q[Dab]G[dPro(4R-(4-pyridylmethyl))]) (ring closure inferred) [SEQ ID NO 268] | 0.014 |
| cyclo([Bip][4Pal][Phe(4-COOH)]G[Pro(cis-4-F)][Trp(4-Cl)(βS-Me)][Aib]SW[d(αMeD)][aThr]Q[Dab]G[dPro(4R-(4-pyridylmethyl))]) (ring closure inferred) [SEQ ID NO 289] | 0.015 |
| cyclo([Bip(4'-COOH)][Ala(1-bicyclo(1.1.1)pentyl)][Phe(4-COOH)]G[Pro(cis-4-F)][Trp(βS-Me,4-F)][Aib]SW[d(αMeD)]LQ[Dab]G[dPro(4R-(4-pyridylmethyl))]) (ring closure inferred) [SEQ ID NO 349] | 0.017 |
| cyclo([Phe4F][4Pal][Phe(4-COOH)]G[Pro(cis-4-F)][Trp(βS-Me,4-F)][Aib]SW[d(αMeD)][Ala(pyrimidin-5-yl)]Q[Dab]G[dPro(3S-(4-F-Bn))]) (ring closure inferred) [SEQ ID NO 277] | 0.023 |
| cyclo([Bip][4Pal][Phe(4-COOH)]G[Pro(cis-4-F)][Trp(βS-Me,4-F)][Aib]SW[d(αMeS)][Ala(pyrimidin-5-yl)]Q[Dab]G[dPro(4R-(4-pyridylmethyl))]) (ring closure inferred) [SEQ ID NO 340] | 0.021 |
| cyclo([Bip(4'-COOH)][4Pal][Phe(4-COOH)]G[Pro(cis-4-F)][Trp(βS-Me,4-F)][Aib]SW[d(αMeD)][Ala(piperidin-4-yl)]Q[Dab]G[dPro(4R-Bzl(4-F))]) (ring closure inferred) [SEQ ID NO 320] | 0.015 |
| cyclo([Bip(4'-COOH)][4Pal][Phe(4-COOH)]G[Pro(cis-4-F)][Trp(βS-Me,4-F)][Aib]S[Trp(4-Cl)][d(αMeD)][Ala(pyrimidin-5-yl)]Q[Dab]G[dPro(4R-(4-pyridylmethyl))]) (ring closure inferred) [SEQ ID NO 251] | 0.013 |
| cyclo([Bip][4Pal][Phe(4-COOH)]G[Pro(cis-4-F)][Trp(βS-Me,4-F)][Aib]SW[d(αMeD)][dDab]Q[Dab]G[dPro(4R-(4-pyridylmethyl))]) (ring closure inferred) [SEQ ID NO 248] | 0.028 |

1 = cyclo([Phe4pcCCA][Ala(1-bicyclo(1.1.1)pentyl)][Phe(4-COOH)]G[Pro(cis-4-F)][Trp(βS-Me,4-F)][Aib]SW[d(αMeD)][aThr]Q[Dab]G[dPro(4R-(4-pyridylmethyl))]) (ring closure inferred) [SEQ ID NO 334]
2 = cyclo([Bip(4'-COOH)][4Pal][Phe(2-Cl,4-COOH)]G[Pro(cis-4-F)][Trp(4-Cl)(βS-Me)][Aib]SW[d(αMeD)][aThr]Q[Dab]G[dPro(4R-(4-pyridylmethyl))]) (ring closure inferred) [SEQ ID NO 355]
## Task Recorded MRC5 IC50 values differ for 1 and 2 ; which one is higher? Indicate which entry you chose by stating its label.
## Result 1
(1: 0.022 nM, 2: 0.013 nM)
